meta.source: ChEMBL document CHEMBL3627671

# MIC values compiled below
# System: Klebsiella pneumoniae
# measurementNotes: Antibacterial activity against Klebsiella pneumoniae D 11750/08 after 24 hrs by microdilution broth method
# Type: functional
# experimentalContext: D 11750/08, 24 h
experimentalReadout: MIC

1. O=C(Nc1ccc([N+](=O)[O-])cc1)c1cc([N+](=O)[O-])ccc1O    > 500 µM
2. CC1(C)S[C@@H]2[C@H](NC(=O)Cc3ccccc3)C(=O)N2[C@H]1C(=O)O [PENICILLIN G]    500 µM
3. O=C(Nc1cccc(Br)c1)c1cc([N+](=O)[O-])ccc1O    > 500 µM
4. O=C(Nc1cccc([N+](=O)[O-])c1)c1cc([N+](=O)[O-])ccc1O    > 500 µM
5. O=C(Nc1cccc(I)c1)c1cc([N+](=O)[O-])ccc1O    > 500 µM
6. O=C(Nc1ccc(C(F)(F)F)cc1)c1ccc([N+](=O)[O-])cc1O    500 µM
7. O=C(Nc1ccc([N+](=O)[O-])cc1)c1ccc([N+](=O)[O-])cc1O    500 µM
8. O=C(Nc1ccc(C(F)(F)F)cc1)c1cc([N+](=O)[O-])ccc1O    > 500 µM
9. O=C(Nc1cccc([N+](=O)[O-])c1)c1ccc([N+](=O)[O-])cc1O    > 250 µM
10. O=C(Nc1ccc(Cl)c(Cl)c1)c1ccc([N+](=O)[O-])cc1O    > 500 µM
11. O=C(Nc1cccc(F)c1)c1cc([N+](=O)[O-])ccc1O    > 500 µM
12. O=C(Nc1ccc([N+](=O)[O-])c(C(F)(F)F)c1)c1cc([N+](=O)[O-])ccc1O    > 500 µM
13. O=C(Nc1cccc(F)c1)c1ccc([N+](=O)[O-])cc1O    500 µM

----------
# MIC values compiled below
# Test system: Escherichia coli
# measurementNotes: Antibacterial activity against Escherichia coli CCM4517 after 24 hrs by microdilution broth method
# Type: functional
# experimentalContext: CCM4517, 24 h
experimentalReadout: MIC (µM)

1. O=C(Nc1cccc(F)c1)c1ccc([N+](=O)[O-])cc1O    250
2. CC1(C)S[C@@H]2[C@H](NC(=O)Cc3ccccc3)C(=O)N2[C@H]1C(=O)O [PENICILLIN G]    125
3. O=C(Nc1cccc(C(F)(F)F)c1)c1ccc([N+](=O)[O-])cc1O    500
4. O=C(Nc1cccc(Br)c1)c1ccc([N+](=O)[O-])cc1O    500

----------
# MIC values compiled below
# System: Klebsiella pneumoniae
# measurementNotes: Antibacterial activity against ESBL-positive Klebsiella pneumoniae J 14368/08 after 24 hrs by microdilution broth method
# Type: functional
# experimentalContext: J 14368/08, 24 h
experimentalReadout: MIC

1. O=C(Nc1cccc(C(F)(F)F)c1)c1ccc([N+](=O)[O-])cc1O    > 500 µM
2. O=C(Nc1cccc(Br)c1)c1ccc([N+](=O)[O-])cc1O    500 µM
3. O=C(Nc1ccc([N+](=O)[O-])cc1)c1cc([N+](=O)[O-])ccc1O    > 500 µM
4. O=C(Nc1ccc(Cl)c(Cl)c1)c1ccc([N+](=O)[O-])cc1O    > 500 µM
5. O=C(Nc1ccc(C(F)(F)F)cc1)c1ccc([N+](=O)[O-])cc1O    500 µM
6. O=C(Nc1cc(C(F)(F)F)cc(C(F)(F)F)c1)c1cc([N+](=O)[O-])ccc1O    > 500 µM
7. O=C(Nc1cccc(I)c1)c1cc([N+](=O)[O-])ccc1O    > 500 µM
8. O=C(Nc1cccc(Br)c1)c1cc([N+](=O)[O-])ccc1O    > 500 µM
9. O=C(Nc1ccc([N+](=O)[O-])cc1)c1ccc([N+](=O)[O-])cc1O    500 µM
10. O=C(Nc1cccc([N+](=O)[O-])c1)c1ccc([N+](=O)[O-])cc1O    > 250 µM
